# study target: Human IP6K1 (Homo sapiens)
# Construct: GST (N, cleaved yes); made in house; host or cells: C43 E. coli, pGEX-6P-2
# procedure details: IP6K1 high-throughput screen of the Sigma LOPAC (ADP-Glo Max, single point);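 also: final compound concentration 10µM in 5% DMSO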
# Type: biochemical
# measurement setup: Sigma LOPAC single-point screen; Z-score from plate average and StDev
Counter-ions that a name gives are not always drawn.
Lab note: anything with Z-score below 0.6 is marked criterion met; values at 0.6 or higher are marked criterion not met.

Take a look at these entries with their results.
I wonder whether O=C(O)[C@@H]1[C@H](C(=O)O)[C@H]2CC[C@@H]1O2 [Endothall] has Z-score below 0.6. Can you tell?
criterion not met

I wonder whether Cl.Cl.Oc1ccc2c3c1O[C@H]1c4[nH]c5c(c4C[C@@]4(O)[C@@H](C2)N(CC2CC2)CC[C@]314)C[C@@]1(O)[C@H]2Cc3ccc(O)c4c3[C@@]1(CCN2CC1CC1)[C@H]5O4 [nor-Binaltorphimine dihydrochloride] has Z-score below 0.6. Can you tell?
criterion met

I wonder whether COc1ccc2[nH]cc(CCN(C)C)c2c1.O=C(O)C(=O)O [5-Methoxy DMT oxalate] has Z-score below 0.6. Can you tell?
criterion not met

I wonder whether NC(=O)CC[C@H](N)C(=O)O has Z-score below 0.6. Can you tell?
criterion met

I wonder whether CC(NCCc1ccc(O)cc1)C(O)c1ccc(O)cc1 (centres unmarked) [Ritodrine hydrochloride] has Z-score below 0.6. Can you tell?
criterion not met

I wonder whether COC(=O)C1=C(C)NC(C)=C(C(=O)OC)C1c1ccccc1[N+](=O)[O-] has Z-score below 0.6. Can you tell?
criterion not met

I wonder whether COC1=C(OC)C(=O)c2ccccc2C1=O has Z-score below 0.6. Can you tell?
criterion met

Lab note: next compound to report on.
I wonder whether c1ccc2cc(-c3ncc[nH]3)ccc2c1 [Benazoline oxalate] has Z-score below 0.6. Can you tell?
criterion not met

---

Entries annotated with measured Z-score
# study target: Human IP6K1 (Homo sapiens)
# Construct: GST (N, cleaved yes); made in house; host or cells: C43 E. coli, pGEX-6P-2
# procedure details: IP6K1 high-throughput screen of the Sigma LOPAC (ADP-Glo Max, single point);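 also: final compound concentration 10µM in 5% DMSO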
# Assay type: biochemical
# measurement setup: LOPAC single-point screen; Z-score from plate average and StDev
Number only, no unit.

Below, 5 compounds whose answers are already recorded.
// Z-score lookup, compound = Cl.Cl.c1ccc(CCCN2CCN(CCOC(c3ccccc3)c3ccccc3)CC2)cc1 [GBR-12935 dihydrochloride] , result: 1.572

// Z-score lookup, compound = CC(N)(Cc1ccc(O)cc1)C(=O)O (racemic) , result: 2.656

// Z-score lookup, compound = CC(C)NCC(O)COc1cccc2[nH]ccc12 (centres unmarked) , result: 1.414

// Z-score lookup, compound = CC(C)Oc1cccnc1N(C)C1CCN(Cc2ccccc2)CC1.O=C(O)/C=C\C(=O)O [U-101958 maleate] , result: 1.762

// Z-score lookup, compound = COc1ccc2c(c[n+](C)c3c4cc5c(cc4ccc23)OCO5)c1OC [Chelerythrine chloride] , result: 1.5256

Continuing:
// Z-score lookup, compound = CN1C[C@H](CNC(=O)OCc2ccccc2)C[C@@H]2c3cccc4c3c(cn4C)C[C@H]21 , result: 1.899

// Z-score lookup, compound = CCCCC/C=C\C[C@@H](O)/C=C/c1cccc(C[C@@H](O)CCCCO)n1 , result: 1.509

// Z-score lookup, compound = Cc1oncc1C(=O)Nc1ccc(C(F)(F)F)cc1 [Leflunomide] , result: 1.939

---

# study target: Human IP6K1 (Homo sapiens)
# Construct: GST (N, cleaved yes); made in house; host or cells: C43 E. coli, pGEX-6P-2
# procedure details: IP6K1 high-throughput screen of the Sigma LOPAC (ADP-Glo Max, single point);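 also: final compound concentration 10µM in 5% DMSO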
# Type: biochemical
# measurement setup: Sigma LOPAC single-point screen; Z-score from plate average and StDev
Entries annotated with measured Z-score
Number only, no unit.

// Z-score lookup, compound = C=C(C)[C@H]1CC=C(C(=O)O)CC1 [(-)-Perillic acid] , result: 0.5467

// Z-score lookup, compound = C[C@@H]1O[C@H](C[N+](C)(C)C)CS1.[I-] [OXA-22 iodide] , result: 0.4612

Continuing:
// Z-score lookup, compound = CCOC(=O)C1=C[C@]2(CC)CCCN3CCc4c(n1c1ccccc41)[C@@H]32 , result: 0.7643

// Z-score lookup, compound = CCCCCC(O)c1cccc(OCc2ccc3ccccc3n2)c1 (centres unmarked) , result: 1.234

// Z-score lookup, compound = Br.CCCN(CCC)[C@@H]1CCc2cccc(O)c2C1 [R-(+)-8-Hydroxy-DPAT hydrobromide] , result: 0.6117

---

# study target: Human IP6K1 (Homo sapiens, UniProt Q92551)
# Construct: GST (N, cleaved yes); made in house; host or cells: C43 E. coli, pGEX-6P-2
# Sequence (Q92551 whole entry): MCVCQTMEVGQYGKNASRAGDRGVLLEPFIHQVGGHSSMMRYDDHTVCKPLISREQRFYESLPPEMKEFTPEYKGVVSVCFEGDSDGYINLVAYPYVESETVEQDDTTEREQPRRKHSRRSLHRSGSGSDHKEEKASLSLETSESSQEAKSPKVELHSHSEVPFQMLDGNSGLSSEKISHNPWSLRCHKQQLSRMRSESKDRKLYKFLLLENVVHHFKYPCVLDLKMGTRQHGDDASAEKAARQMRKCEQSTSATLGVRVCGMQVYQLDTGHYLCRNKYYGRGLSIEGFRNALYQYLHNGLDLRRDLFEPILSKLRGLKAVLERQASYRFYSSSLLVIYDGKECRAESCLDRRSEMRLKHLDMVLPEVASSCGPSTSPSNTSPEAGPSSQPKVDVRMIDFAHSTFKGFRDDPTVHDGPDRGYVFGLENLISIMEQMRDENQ
# procedure details: IP6K1 high-throughput screen of the Sigma LOPAC (ADP-Glo Max, single point);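 also: final compound concentration 10µM in 5% DMSO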
# Assay type: biochemical
# measurement setup: LOPAC single-point screen, ADP-Glo Max luminescence raw signal per well
reported property: Raw Signal

// Raw Signal lookup, compound = C#CC(N)CCC(=O)O (stereo not shown) , result: 54991

// Raw Signal lookup, compound = C/C=C1\C(=O)C[C@H]2[C@@H]3CCC4=CC(=O)CC[C@]4(C)[C@H]3CC[C@]12C [(Z)-Gugglesterone] , result: 49571

// Raw Signal lookup, compound = CC(C)[C@@]1(NC(=O)[C@@H]2C[C@@H]3c4cccc5[nH]cc(c45)C[C@H]3N(C)C2)O[C@@]2(O)[C@@H]3CCCN3C(=O)[C@H](Cc3ccccc3)N2C1=O.CS(=O)(=O)O [Dihydroergocristine methanesulfonate] , result: 65195

Field: next compound
// Raw Signal lookup, compound = CNc1ccc2oc(C[C@H]3O[C@@]4(CC[C@H]3C)O[C@H]([C@H](C)C(=O)c3ccc[nH]3)[C@H](C)C[C@H]4C)nc2c1C(=O)O , result: 66206

---

# study target: Human IP6K1 (Homo sapiens)
# Construct: GST (N, cleaved yes); made in house; host or cells: C43 E. coli, pGEX-6P-2
# procedure details: IP6K1 high-throughput screen of the Sigma LOPAC (ADP-Glo Max, single point);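 also: final compound concentration 10µM in 5% DMSO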
# Format: biochemical
# measurement setup: LOPAC single-point screen, Z-score against plate average and StDev
Structures can show the parent of a compound that is named as a salt.
reported property: Z-score
Number only, no unit.

Below, 4 molecules whose answers are already recorded.
// Z-score lookup, molecule = CC(=O)[C@]1(O)Cc2c(O)c3c(c(O)c2[C@@H](O[C@H]2C[C@H](N)[C@H](O)[C@H](C)O2)C1)C(=O)c1ccccc1C3=O [Idarubicin] , result: 0.01035

// Z-score lookup, molecule = NS(=O)(=O)c1cc2c(cc1Cl)NCNS2(=O)=O [Hydrochlorothiazide] , result: 0.2975

// Z-score lookup, molecule = C=C[C@H]1C[N@@]2CC[C@H]1C[C@@H]2[C@@H](O)c1ccnc2ccc(OC)cc12 [Quinidine sulfate] , result: 0.06784

// Z-score lookup, molecule = Cc1cc(C(C)(C)C)cc(C)c1CC1=NCCN1 [Xylometazoline hydrochloride] , result: 0.2681

Continuing:
// Z-score lookup, molecule = O=C(O)C1=CCCNC1 [Guvacine hydrochloride] , result: 0.2277

// Z-score lookup, molecule = O=C(O)[C@H]1C[C@H](C(=O)O)N1 (relative stereo) [trans-Azetidine-2,4-dicarboxylic acid] , result: -0.003188

// Z-score lookup, molecule = Oc1ccc2c3c1O[C@H]1c4oc5ccccc5c4C[C@@]4(O)[C@@H](C2)N(CC2CC2)CC[C@]314 [Naltriben methanesulfonate] , result: 0.1585

---

# study target: Human IP6K1 (Homo sapiens)
# Construct: GST (N, cleaved yes); made in house; host or cells: C43 E. coli, pGEX-6P-2
# procedure details: IP6K1 high-throughput screen of the Sigma LOPAC (ADP-Glo Max, single point);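 also: final compound concentration 10µM in 5% DMSO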
# Format: biochemical
# measurement setup: LOPAC single-point screen, ADP-Glo Max raw signal per well
Counter-ions that a name gives are not always drawn.
Entries annotated with measured Raw Signal
Number only, no unit.

// Raw Signal lookup, compound = CCN1C(=O)C=CC1=O [N-Ethylmaleimide] , result: 55064

Continuing:
// Raw Signal lookup, compound = Cc1c(OCC(F)(F)F)ccnc1C[S+]([O-])c1nc2ccccc2[nH]1 (centres unmarked) [Lansoprazole] , result: 53701

// Raw Signal lookup, compound = N=C(N)c1ccccc1 [Benzamidine hydrochloride] , result: 57181

// Raw Signal lookup, compound = O=C(C1CCCCC1)N1CC(=O)N2CCc3ccccc3C2C1 (centres unmarked) [Praziquantel] , result: 53749

// Raw Signal lookup, compound = CN1CCN(C(=O)OC2c3nccnc3C(=O)N2c2ccc(Cl)cn2)CC1 (centres unmarked) [Zopiclone] , result: 56506
